tested on: SK-HEP-1 (Hepatocellular Carcinoma); assay: Bliss excess, mean over the matrix (fraction); higher = more synergy;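 also: after 72 h of two-drug dosing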
Exercise: for every item that follows, state its recorded Bliss excess.

Each of the following entries comes with a recorded value; kindly state Bliss excess for each.
1. C=CCn1c(=O)c2cnc(Nc3ccc(N4CCN(C)CC4)cc3)nc2n1-c1cccc(C(C)(C)O)n1 [AZD1775] + Nc1ccn([C@@H]2O[C@H](CO)[C@@H](O)C2(F)F)c(=O)n1 [Gemcitabine] (first compound max 1 µM, partner max 0.3 µM)
2. C[C@@H]1COCCN1c1cc(C2([S@](C)(=N)=O)CC2)nc(-c2ccnc3[nH]ccc23)n1 [AZD6738] + Nc1ccn([C@@H]2O[C@H](CO)[C@@H](O)C2(F)F)c(=O)n1 [Gemcitabine] (first compound max 10 µM, 7x7, partner max 0.3 µM)
3. Cc1c2c(nn1C)CSCc1cc(n(C)n1)CSc1cc(c3ccccc3c1)OCCCc1c(C(=O)O)n(C)c3c-2c(Cl)ccc13 [AZD5991] + C=CCn1c(=O)c2cnc(Nc3ccc(N4CCN(C)CC4)cc3)nc2n1-c1cccc(C(C)(C)O)n1 [AZD1775] (first compound max 1 µM, partner max 1 µM)
4. NC1(C(=O)N[C@@H](CCO)c2ccc(Cl)cc2)CCN(c2ncnc3[nH]ccc23)CC1 [Capivasertib] + COc1nnc2ccc(N3CCC(c4ccc(OCCN5CCN(C)C(=O)[C@H]5C)cc4)CC3)nn12 [AZD5153] (first compound max 10 µM, 7x7, partner max 1 µM)

1. -0.029
2. 0.0557
3. -0.0366
4. -0.0784
